Test system: NCI-H1975
Experiment: relative viability (nuclei count vs DMSO), 5 days (fraction); higher = more cells survive
Conditions: first compound 0.006325 µM
Measured relative viability of individual entries
ENDPOINT_LABEL: relative viability

COMPOUND: CC(=O)O[C@@]12CO[C@@H]1C[C@H](O)[C@@]1(C)C(=O)[C@H](O)C3=C(C)[C@@H](OC(=O)[C@H](O)[C@@H](NC(=O)OC(C)(C)C)c4ccccc4)C[C@@](O)([C@@H](OC(=O)c4ccccc4)[C@H]21)C3(C)C [Docetaxel] + CC(=O)Nc1cccc(-n2c(=O)n(C3CC3)c(=O)c3c(Nc4ccc(I)cc4F)n(C)c(=O)c(C)c32)c1 [Trametinib] (partner 0.02 µM)
REPORTED_MEASUREMENT: 0.167
--
COMPOUND: CC(=O)O[C@@]12CO[C@@H]1C[C@H](O)[C@@]1(C)C(=O)[C@H](O)C3=C(C)[C@@H](OC(=O)[C@H](O)[C@@H](NC(=O)OC(C)(C)C)c4ccccc4)C[C@@](O)([C@@H](OC(=O)c4ccccc4)[C@H]21)C3(C)C [Docetaxel] + CC(=O)c1c(C)c2cnc(Nc3ccc(N4CCNCC4)cn3)nc2n(C2CCCC2)c1=O [Palbociclib] (partner 0.5 µM)
REPORTED_MEASUREMENT: 0.215
--
COMPOUND: CC(=O)O[C@@]12CO[C@@H]1C[C@H](O)[C@@]1(C)C(=O)[C@H](O)C3=C(C)[C@@H](OC(=O)[C@H](O)[C@@H](NC(=O)OC(C)(C)C)c4ccccc4)C[C@@](O)([C@@H](OC(=O)c4ccccc4)[C@H]21)C3(C)C [Docetaxel] + O=C(CCCCCCC(=O)Nc1ccccc1)NO [Vorinostat] (partner 1 µM)
REPORTED_MEASUREMENT: 0.232
--
COMPOUND: CC(=O)O[C@@]12CO[C@@H]1C[C@H](O)[C@@]1(C)C(=O)[C@H](O)C3=C(C)[C@@H](OC(=O)[C@H](O)[C@@H](NC(=O)OC(C)(C)C)c4ccccc4)C[C@@](O)([C@@H](OC(=O)c4ccccc4)[C@H]21)C3(C)C [Docetaxel] + CC(C)C[C@H](NC(=O)[C@H](Cc1ccccc1)NC(=O)c1cnccn1)B(O)O [Bortezomib] (partner 0.002 µM)
REPORTED_MEASUREMENT: 0.15
--
COMPOUND: CC(=O)O[C@@]12CO[C@@H]1C[C@H](O)[C@@]1(C)C(=O)[C@H](O)C3=C(C)[C@@H](OC(=O)[C@H](O)[C@@H](NC(=O)OC(C)(C)C)c4ccccc4)C[C@@](O)([C@@H](OC(=O)c4ccccc4)[C@H]21)C3(C)C [Docetaxel] + COc1cccc2cc(-c3nc([C@H]4CC[C@H](C(=O)O)CC4)n4ncnc(N)c34)[nH]c12 [OSI-027] (partner 0.5 µM)
REPORTED_MEASUREMENT: 0.16
